// reported Plant response rating, Goosegrass for each item listed
system: goosegrass; assay: Test A postemergence; type: in vivo, Eleusine indica; conditions: 500 g ai/ha, Postemergence; 0 to 100 scale

>  <compound>
CCc1cccc2c1OC(C)CN2C(=O)c1cccc(-n2cncn2)c1 (centres unmarked)

>  <Plant response rating, Goosegrass>
40

$$$$
>  <compound>
CC1CN(C(=O)c2cccc(-n3cncn3)c2)c2cccc(C3CC3)c2O1 (centres unmarked)

>  <Plant response rating, Goosegrass>
30

$$$$
>  <compound>
Cc1cccc2c1O[C@@H](C)CN2C(=O)c1cccc(-n2ncnc2C(C)C)c1

>  <Plant response rating, Goosegrass>
0

$$$$
>  <compound>
Cc1ccc(-n2cncn2)cc1C(=O)N1C[C@H](C)Oc2c(C)cccc21

>  <Plant response rating, Goosegrass>
90

$$$$
>  <compound>
Cc1cccc2c1O[C@@H](C)CN2C(=O)c1cccc(-n2cncn2)c1F

>  <Plant response rating, Goosegrass>
40

$$$$

---

// reported Plant response rating, Wheat for each item listed
test system: wheat; experiment: Test C postemergence; format: in vivo, Triticum aestivum; conditions: Postemergence, 125 g ai/ha; 0 to 100 scale (0 no effect, 100 complete control), 10 days
observedProperty: Plant response rating, Wheat

>  <compound>
Cc1cccc2c1O[C@@H](C)CN2C(=O)c1cccc(-n2cnc(N)n2)c1

>  <observedProperty>
Plant response rating, Wheat

>  <reportedMeasurement>
10

$$$$
>  <compound>
Cc1ncc(-c2cccc(C(=O)N3C[C@H](C)Oc4c(Cl)cccc43)c2)o1

>  <observedProperty>
Plant response rating, Wheat

>  <reportedMeasurement>
10

$$$$
>  <compound>
CCOC[C@H]1CN(C(=O)c2cc(-n3cnc(C4CCC4)n3)cc3c2OCO3)c2cccc(Cl)c2O1

>  <observedProperty>
Plant response rating, Wheat

>  <reportedMeasurement>
20

$$$$
>  <compound>
Cc1cccc2c1OC(C(F)(F)F)CN2C(=O)c1ccnc(-n2cnc(C(C)C)n2)c1 (stereo not shown) [Compound 327]

>  <observedProperty>
Plant response rating, Wheat

>  <reportedMeasurement>
20

$$$$
>  <compound>
COc1ncn(-c2cccc(C(=O)N3C[C@H](C)Oc4c(C)cccc43)c2)n1

>  <observedProperty>
Plant response rating, Wheat

>  <reportedMeasurement>
10

$$$$
>  <compound>
CC(C)(C)c1ncn(-c2cccc(C(=O)N3CC(C(F)(F)F)Oc4c(Cl)cccc43)c2)n1 (stereo not shown)

>  <observedProperty>
Plant response rating, Wheat

>  <reportedMeasurement>
20

$$$$
>  <compound>
COC[C@H]1CN(C(=O)c2cc(-n3cnc(C(C)(C)C)n3)cc3c2OCCO3)c2cccc(Cl)c2O1

>  <observedProperty>
Plant response rating, Wheat

>  <reportedMeasurement>
20

$$$$
>  <compound>
CC(C)c1ncn(-c2ccc([S+](C)[O-])c(C(=O)N3C[C@H](C)Oc4c(Cl)cccc43)c2)n1 (stereo partly shown)

>  <observedProperty>
Plant response rating, Wheat

>  <reportedMeasurement>
30

$$$$
>  <compound>
CCc1ncn(-c2cccc(C(=O)N3CC(C(F)(F)F)Oc4c(Cl)cccc43)c2)n1 (stereo not shown)

>  <observedProperty>
Plant response rating, Wheat

>  <reportedMeasurement>
20

$$$$
>  <compound>
COC[C@H]1CN(C(=O)c2cc(-n3cnc(C(C)C)n3)ccc2OC)c2cccc(Cl)c2O1

>  <observedProperty>
Plant response rating, Wheat

>  <reportedMeasurement>
20

$$$$

---

// reported Plant response rating, Goosegrass for each item listed
system: goosegrass; experiment: Test A preemergence; type: in vivo, Eleusine indica; conditions: 500 g ai/ha, 0 to 100 scale (0 no effect, 100 complete control), 10 days
observedProperty: Plant response rating, Goosegrass

>  <compound>
Cc1cccc2c1O[C@@H](C)CN2C(=O)c1cccc(-n2cnc(C3CC3)n2)c1

>  <measuredOn>
goosegrass

>  <reportedMeasurement>
100

$$$$
>  <compound>
Cc1ccc(-n2cnc(C(C)C)n2)cc1C(=O)N1C[C@H](C)Oc2c(C)cccc21

>  <measuredOn>
goosegrass

>  <reportedMeasurement>
100

$$$$
>  <compound>
CC1CN(C(=O)c2cccc(-n3cncn3)c2)c2cccc(C3CC3)c2O1 (centres unmarked)

>  <measuredOn>
goosegrass

>  <reportedMeasurement>
90

$$$$
>  <compound>
C[C@H]1CN(C(=O)c2cccc(-n3cnc(Br)n3)c2)c2cccc(Cl)c2O1

>  <measuredOn>
goosegrass

>  <reportedMeasurement>
100

$$$$
>  <compound>
O=C(c1cccc(-n2cncn2)c1)N1CC(C(F)(F)F)Oc2c(Cl)cccc21 (centres unmarked)

>  <measuredOn>
goosegrass

>  <reportedMeasurement>
100

$$$$

---

// reported Plant response rating, Blackgrass for each item listed
tested on: blackgrass; test: Test A preemergence; assay type: in vivo, Alopecurus myosuroides; details: 500 g ai/ha, visual injury after 10 days, 0 to 100 scale, 0 is no effect, 100 is complete control
observedProperty: Plant response rating, Blackgrass

>  <compound>
Cc1ccc(-n2cnc(C(C)(C)O)n2)cc1C(=O)N1C[C@H](C)Oc2c(Cl)cccc21 [Compound 149]

>  <reportedMeasurement>
90

$$$$
>  <compound>
C[C@H]1CN(C(=O)c2cc(Br)cc(-n3cncn3)c2)c2cccc(Cl)c2O1 [Compound 114]

>  <reportedMeasurement>
70

$$$$
>  <compound>
CC(C)c1ncn(-c2ccc(OCC(F)(F)F)c(C(=O)N3C[C@H](C)Oc4c(Cl)cccc43)c2)n1 [Compound 141]

>  <reportedMeasurement>
70

$$$$

---

test system: soybean; assay: Test C postemergence; format: in vivo, Glycine max; details: 125 g ai/ha, postemergence, 10 days; 0 to 100 scale, 0 no effect, 100 complete control

>  <compound>
CCOCc1ncn(-c2ccc(C)c(C(=O)N3C[C@H](C)Oc4c(Cl)cccc43)c2)n1

>  <Plant response rating, Soybean>
90

$$$$
>  <compound>
COC[C@H]1CN(C(=O)c2cc(-n3cnc(C4CCC4)n3)ccc2C)c2cccc(Cl)c2O1

>  <Plant response rating, Soybean>
100

$$$$
>  <compound>
Cc1ccc(-n2cnc(C3(C(F)(F)F)CC3)n2)cc1C(=O)N1C[C@H](C)Oc2c(Cl)cccc21

>  <Plant response rating, Soybean>
100

$$$$
>  <compound>
COc1ccc(-n2cncn2)cc1C(=O)N1C[C@H](C)Oc2ccccc21

>  <Plant response rating, Soybean>
100

$$$$
>  <compound>
C[C@H]1CN(C(=O)c2cc(-n3cnc(C4CC4)n3)cc3c2OCCO3)c2cccc(Cl)c2O1

>  <Plant response rating, Soybean>
100

$$$$
>  <compound>
COC[C@H]1CN(C(=O)c2cc(-n3cnc(C4CC4)n3)ccc2C)c2cccc(Cl)c2O1

>  <Plant response rating, Soybean>
100

$$$$
>  <compound>
CC(C)n1cnc(-c2cccc(C(=O)N3C[C@H](C)Oc4c(Cl)cccc43)c2)n1

>  <Plant response rating, Soybean>
0

$$$$
>  <compound>
CCc1ncn(-c2ccc(OC)c(C(=O)N3C[C@H](COC)Oc4c(Cl)cccc43)c2)n1

>  <Plant response rating, Soybean>
100

$$$$

---

System: barnyardgrass
Test: Test B flooded paddy test
Format: in vivo, Echinochloa crus-galli
Settings: 250 g ai/ha, Flood, 13 days, 0 to 100 scale (0 no effect, 100 complete control)
Procedure: Plant species in the flooded paddy test selected from barnyardgrass (Echinochloa crus-galli), ducksalad (Heteranthera limosa), rice (Oryza sativa), and sedge, umbrella (small-flower umbrella sedge, Cyperus difformis) were grown to the 2-leaf stage for testing. […] Treated plants and controls were maintained in a greenhouse for 13 days, after which time all species were compared to controls and visually evaluated. […]

>  <compound>
COc1ccc(-n2cnc(C)n2)cc1C(=O)N1C[C@H](C)Oc2c(Cl)cccc21

>  <Plant response rating, Barnyardgrass>
60

$$$$
>  <compound>
Cc1nc(C)n(-c2cccc(C(=O)N3C[C@H](C)Oc4c(Cl)cccc43)c2)n1

>  <Plant response rating, Barnyardgrass>
0

$$$$
>  <compound>
Cc1cccc2c1OC(C)CN2C(=O)c1cccc(-n2cncn2)c1 (centres unmarked)

>  <Plant response rating, Barnyardgrass>
0

$$$$
>  <compound>
CC1CN(C(=O)c2cccc(-n3cncn3)c2)c2cccc(Br)c2O1 (centres unmarked)

>  <Plant response rating, Barnyardgrass>
0

$$$$
>  <compound>
CCc1ncn(-c2cccc(C(=O)N3C[C@H](C)Oc4c(C)cccc43)c2)n1

>  <Plant response rating, Barnyardgrass>
0

$$$$
>  <compound>
CC(C)c1ncn(-c2cccc(C(=O)N3C[C@H](C)Oc4c(Cl)cccc43)c2)n1

>  <Plant response rating, Barnyardgrass>
0

$$$$
>  <compound>
CCc1ccc(-n2cnc(C3CC3)n2)cc1C(=O)N1C[C@H](C)Oc2c(Cl)cccc21

>  <Plant response rating, Barnyardgrass>
20

$$$$
>  <compound>
Cc1ccc(C(=O)N2CC(C)Oc3c(Cl)cccc32)cc1-n1cncn1 (centres unmarked)

>  <Plant response rating, Barnyardgrass>
0

$$$$
>  <compound>
CC(C)c1ncn(-c2ccc(OC(F)(F)F)c(C(=O)N3C[C@H](C)Oc4c(Cl)cccc43)c2)n1

>  <Plant response rating, Barnyardgrass>
55

$$$$
>  <compound>
Cc1ccc(-n2cnc(CO)n2)cc1C(=O)N1C[C@H](C)Oc2c(Cl)cccc21

>  <Plant response rating, Barnyardgrass>
25

$$$$
>  <compound>
Cc1cccc2c1O[C@@H](C)CN2C(=O)c1cccc(-n2cnc(Cl)n2)c1

>  <Plant response rating, Barnyardgrass>
0

$$$$
>  <compound>
Cc1cccc2c1O[C@@H](C)CN2C(=O)c1cc(-n2cncn2)ccc1F

>  <Plant response rating, Barnyardgrass>
0

$$$$
>  <compound>
C[C@H]1CN(C(=O)c2cccc(-n3cncn3)c2)c2cccc(C(F)(F)F)c2O1

>  <Plant response rating, Barnyardgrass>
0

$$$$
>  <compound>
Cc1cccc2c1O[C@@H](C)CN2C(=O)c1cccc(-n2cnc(C3CCCCC3)n2)c1

>  <Plant response rating, Barnyardgrass>
0

$$$$
